# System: Bacillus subtilis
# protocol.details: Antimicrobial activity against Bacillus subtilis ATCC 20678 incubated for 18 hrs by broth microdilution method
# Assay type: functional

| smiles.code | MIC, µg/mL |
| --- | --- |
| Cn1cc(-c2csc(Nc3cc(F)cc(C(F)(F)F)c3)n2)cn1 | 256 |
| Fc1ccc(-c2csc(Nc3cccnc3)n2)c(F)c1 | 256 |
| C/C(=N\Nc1cnccn1)c1csc(Nc2cc(F)cc(C(F)(F)F)c2)n1 | 256 |
| O=C(Nc1ccccn1)c1csc(Nc2cc(F)cc(C(F)(F)F)c2)n1 | 256 |
| Fc1cc(Nc2nc(-c3cccs3)cs2)cc(C(F)(F)F)c1 | 4 |
| Fc1ccc(-c2csc(Nc3cc(C(F)(F)F)cc(C(F)(F)F)c3)n2)c(F)c1 | 4 |
| Cc1cc(C(F)(F)F)ccc1Nc1nc(-c2ccc(F)cc2F)cs1 | 4 |
| Fc1cc(Nc2nc(C3CCOCC3)cs2)cc(C(F)(F)F)c1 | 64 |
| Fc1ccc(-c2csc(Nc3ccccc3C(F)(F)F)n2)c(F)c1 | 8 |
| C/C(=N\Nc1ccccc1)c1csc(Nc2cc(F)cc(C(F)(F)F)c2)n1 | 16 |
